Taken from the supplement of paper PMC7156485.

system: TDF; assay: H1.0 immunofluorescence intensity relative to DMSO (% of DMSO); higher = stronger H1.0 induction, active = 120 or more; conditions: concentration: 10 µM; 24 h
Each entry below carries its reported H1.0 immunofluorescence intensity.
Lab note: jot down the number only; don't add units.

Guide cases for H1.0 immunofluorescence intensity, answers given:
MOLECULE | H1.0 immunofluorescence intensity
COC(=O)c1ccccc1O [Methyl salicylate] | 92.2
CCn1cc(C(=O)O)c(=O)c2cc(F)c(N3CCNCC3)cc21 [Norfloxacin] | 105
CC[C@H](C)C(=O)O[C@H]1C[C@H](O)C=C2C=C[C@H](C)[C@H](CC[C@@H](O)C[C@@H](O)CC(=O)[O-])[C@H]21.[Na+] | 95.9

Next molecule, please.
H1.0 immunofluorescence intensity reported for this molecule CCCCCCCCCCCCCC=CC(O)C(CO)NC(=O)CCCCCCCCCCCCCCC (stereo not drawn) [C16 Ceramide] : 102

###

system: HCC1569; assay: cell number relative to DMSO (% of DMSO); higher = more cells (less growth inhibition / toxicity); details: concentration: 10 µM; 24 h
RESULT_TYPE: cell number
Lab note: jot down the number only; don't add units.

Guide cases for cell number, answers given:
MOLECULE | cell number
C#C[C@@]1(OC(C)=O)CC[C@H]2[C@@H]3CCC4=CC(=O)CC[C@@H]4[C@H]3CC[C@@]21C [(17beta)-17-ethynyl-3-oxoestr-4-en-17-yl acetate] | 90.4
CC(C)(C#N)c1cc(Cn2cncn2)cc(C(C)(C)C#N)c1 [Anastrozole] | 102
C=CC1(C)CCC2C(=CCC3C(C)(C(=O)O)CCCC23C)C1 (stereo not drawn) [(4alpha,13alpha)-pimara-7,15-dien-18-oic acid] | 102
CC(C)C(=O)Nc1ncc(-c2cc(C(F)F)nn2-c2c(Cl)cccc2Cl)s1 | 75.5
CCCCCCCCCCCCC(O)C(=O)O (configuration not stated) [2-Hydroxymyristic acid] | 103

Next molecule, please.
cell number reported for this molecule CCC(=O)OC(OP(=O)(CCCCc1ccccc1)CC(=O)N1CC(C2CCCCC2)CC1C(=O)O)C(C)C (configuration not stated) [Fosinopril] : 99.8

###

system: HCC1569; assay: cell number relative to DMSO (% of DMSO); higher = more cells (less growth inhibition / toxicity); details: concentration: 10 µM; 24 h
RESULT_TYPE: cell number
Lab note: jot down the number only; don't add units.

Guide cases for cell number, answers given:
COMPOUND | TARGET_UNDER_TEST | REPORTED_RESULT
Cc1c(-c2cnccn2)ssc1=S [Oltipraz] | HCC1569 | 105
CCCCCCCCCCCCCCCCCCCC(=O)O [Eicosanoic acid] | HCC1569 | 99.8
O=c1c(O)c(-c2ccccc2)oc2cc(O)cc(O)c12 [Galangine] | HCC1569 | 98.1

Next compound, please.
cell number reported for this compound COc1cc(OC)cc(C(CNc2ncnc3c2ncn3C2OC(CO)C(O)C2O)c2ccccc2C)c1 (centres undefined) : 101

###

test system: HCC1569; assay: cell number relative to DMSO (% of DMSO); higher = more cells (less growth inhibition / toxicity); conditions: concentration: 10 µM; 24 h
RESULT_TYPE: cell number

Guide cases for cell number, answers given:
COMPOUND | REPORTED_RESULT
CCCCC=CCCCCCCCCC(=O)O [10(E)-Pentadecenoic acid] | 103
CCCCCC=CCC(O)C=CC=CC=CC(O)CCCC(=O)O (stereo not drawn) [Leukotriene B4] | 105

Next compound, please.
For CC(=O)N1CCN(c2ccc(OCC3COC(Cn4ccnc4)(c4ccc(Cl)cc4Cl)O3)cc2)CC1 (stereo not drawn) [Ketoconazole] on HCC1569, measured cell number was 85.7

###

Each entry below carries its reported cell number.
system: HCC1569; assay: cell number relative to DMSO (% of DMSO); higher = more cells (less growth inhibition / toxicity); settings: concentration: 10 µM; 24 h

Guide cases for cell number, answers given:
COMPOUND | cell number
CN1CCN(c2nc3cc(C(F)(F)F)ccc3n3cccc23)CC1.O=C(O)C=CC(=O)O | 99.3
CNC(=O)C1OC(n2cnc3c(NCc4cccc(I)c4)ncnc32)C(O)C1O (centres undefined) | 102
COc1c2c(nc3ccccc13)OC(C(C)(O)CO)C2 (centres undefined) | 102
CN(C)[C@@H]1CCc2[nH]c3ccc(NC(=O)c4ccc(F)cc4)cc3c2C1.Cl | 99.2
CCCCCCCCC#CCC#CCC#CCCCC(=O)O | 97.5

cell number reported for this compound `O=c1c(-c2ccc(O)cc2)coc2cc(O)ccc12` : 101

cell number reported for this compound `COc1cc2c(CCNC(C)=O)c[nH]c2cc1Cl` : 101

cell number reported for this compound Cl.N[C@@H](Cc1cnc[nH]1)C(=O)O [L-Histidine hydrochloride] : 101

cell number reported for this compound `N[C@@H](Cc1c[nH]c2ccccc12)C(=O)O` : 101

###

tested on: TDF; assay: cell number relative to DMSO (% of DMSO); higher = more cells (less growth inhibition / toxicity); conditions: concentration: 10 µM; 24 h
Each entry below carries its reported cell number.
Lab note: jot down the number only; don't add units.

Guide cases for cell number, answers given:
MOLECULE | REPORTED_RESULT
CC(C)C[C@@H](C(=O)O)c1cc(-c2ccc(C(F)(F)F)cc2)cc(-c2ccc(C(F)(F)F)cc2)c1 | 92.4
Cl.N[C@@H](Cc1cnc[nH]1)C(=O)O [L-Histidine hydrochloride] | 109
O=C(O)CNC(=O)C(CS)Cc1ccccc1 (racemic) | 95.5

cell number reported for this molecule N#Cc1cc2nc([O-])c([O-])nc2cc1[N+](=O)[O-].[Na+].[Na+] [CNQX disodium] : 101

cell number reported for this molecule CCN(CC)CCCC(C)Nc1c2ccc(Cl)cc2nc2ccc(OC)cc12 (centres undefined) : 39.5

cell number reported for this molecule CCCCCC(O)C=CC1C(=O)C=CC1CC=CCCCC(=O)O (centres undefined) : 99.5

cell number reported for this molecule `O=C1NC(c2cccc([N+](=O)[O-])c2)=CCN1c1ccccc1O` : 104

cell number reported for this molecule CCCCCCCCCCCCCCCC(=O)OC(CC(=O)O)C[N+](C)(C)C.[Cl-] (racemic) [Palmitoyl-DL-Carnitine chloride] : 101

cell number reported for this molecule `O=C1CCC(c2ccc(-n3ccnc3)cc2)=NN1` : 93.8

cell number reported for this molecule Cl.Clc1ccc(Cn2c(CN3CCCC3)nc3ccccc32)cc1 [Clemizole hydrochloride] : 112

cell number reported for this molecule C=C1C(=CC=C2CCCC3(C)C2CCC3C(C)CCCC(C)(C)O)CC(O)CC1O (centres undefined) [1,25-Dihydroxyvitamin D3] : 106

###

Each entry below carries its reported cell number.
system: TDF; assay: cell number relative to DMSO (% of DMSO); higher = more cells (less growth inhibition / toxicity); details: concentration: 10 µM; 24 h
Lab note: jot down the number only; don't add units.

MOLECULE | RESULT_TYPE | REPORTED_RESULT
O=C(NCCN1CCC(n2c(=O)[nH]c3cc(Cl)ccc32)CC1)c1ccc(F)cc1 | cell number | 98
CCCCCCCCC=CCCCCCCCCCC(=O)O [11(E)-Eicosenoic acid] | cell number | 101
CN(C)CCCN1c2ccccc2Sc2ccc(Cl)cc21.Cl [Chlorpromazine.HCl] | cell number | 99.7
CC(=O)OCC[N+](C)(C)C | cell number | 103
CC12C=Cc3occc3C1CCC13CC(=O)C(CCC12)C3 (stereo not drawn) | cell number | 98.5

cell number reported for this molecule O=C1Nc2ccc(Cl)cc2C1=Cc1cc(Cl)c(O)c(Cl)c1 [PKR Inhibitor, Negative Control] : 98.8

cell number reported for this molecule NS(=O)(=O)c1ccc(S(=O)(=O)Nc2cccc3c(Cl)c[nH]c23)cc1 [N~1~-(3-chloro-1H-indol-7-yl)-1,4-benzenedisulfonamide] : 103

cell number reported for this molecule `O=P(O)(O)C(O)(Cc1cccnc1)P(=O)(O)O` : 103

###

test system: HCC1569; assay: cell number relative to DMSO (% of DMSO); higher = more cells (less growth inhibition / toxicity); conditions: concentration: 10 µM; 24 h
RESULT_TYPE: cell number
Lab note: jot down the number only; don't add units.

cell number reported for this compound Cc1c(C)c2c(c(C)c1O)CCC(C)(C(=O)O)O2 (stereo unspecified) : 101

cell number reported for this compound Cl.Cl.NCCSSCCN [Cystamine dihydrochloride] : 97.5

cell number reported for this compound `COC(=O)c1c(-c2cc(OC)c(OC)c(OC)c2)c2ccc(OCc3ccccn3)cc2c(=O)n1-c1ccc(N)cc1.O=S(=O)(O)O` : 100

cell number reported for this compound `Cc1ccc([N+](=O)[O-])cc1S(=O)(=O)N(C)N=Cc1cnc2ccc(Br)cn12.Cl.O.O` : 45.7

cell number reported for this compound CC(=O)C1(O)CCC2C3CCC4=CC(=O)CCC4(C)C3CCC21C (stereo unspecified) [17- Hydroxyprogesterone] : 104

cell number reported for this compound `C[C@H](O)[C@H](O)[C@H]1CNc2[nH]c(N)nc(=O)c2N1.Cl.Cl` : 103

cell number reported for this compound CCCC1=C(c2ccc(O)cc2)N(c2ccc(O)cc2)NC1=C1C=CC(=O)C=C1 [1,3,5-tris(4-hydroxyphenyl)-4-propyl-1H-pyrazole] : 98.3

cell number reported for this compound `Cc1cc(O)c2c(c1)C(=O)c1cc(O)cc(O)c1C2=O` : 98.4
